Target: Recombinant human his-tagged IGF 1R extracellular domain protein (human) (UniProt P08069)
Assay: SPR, captured IgG, IGF-1R ECD-his analyte, dissociation pH 7.4
Value type: koff (s⁻¹)
Write it as a number; the unit s⁻¹ goes unstated.

VRDN-02507 (antibody, V domains shown) VH: EVQLVQSGGGLVKPGGSLRLSCAASGFTFSSHAMHWVRQAPGKGLEWISVIDTRGATYYADSVKGRFTISRDNAKNSLYLQMNSLRAEDTAVYYCARLGNFYYGMDVWGQGTTVTVSS VL: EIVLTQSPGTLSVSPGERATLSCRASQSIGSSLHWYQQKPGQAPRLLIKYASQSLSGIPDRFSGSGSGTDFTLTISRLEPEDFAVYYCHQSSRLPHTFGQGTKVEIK | 1.99e-05

Here is another binder to look at.
In: Entry under review: VRDN-02539 (antibody, V domains shown) VH: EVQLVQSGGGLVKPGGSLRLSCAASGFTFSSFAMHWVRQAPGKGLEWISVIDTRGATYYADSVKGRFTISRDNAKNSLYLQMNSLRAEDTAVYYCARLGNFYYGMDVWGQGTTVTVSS VL: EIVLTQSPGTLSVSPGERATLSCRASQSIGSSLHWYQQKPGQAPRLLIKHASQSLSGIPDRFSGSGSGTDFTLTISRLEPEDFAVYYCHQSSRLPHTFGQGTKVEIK . Reported koff?
Out: 1e-06
